Experiment: Plasma concentration in ICR mouse at 5 mg/kg, iv measured after 0.5 hrs by LC-MS/MS analysis
Type: ADME, organism-based
experimentalEndpoint: concentration at 0.5 h (ng/mL)

CN1CCC(N(Cc2ccc(F)cc2)C(=O)NCc2ccc(OCC(O)CN3CCC(c4noc5cc(F)ccc45)CC3)cc2)CC1 (configuration not stated)    455
CC(C)COc1ccc(CNC(=O)N(Cc2ccc(F)cc2)C2CCN(C(=O)CC[C@H](N)C(=O)O)CC2)cc1    416

###

System: Vero
Assay: Cytotoxicity against African green monkey Vero cells
Format: cell-based
Conditions: Chlorocebus sabaeus
experimentalEndpoint: IC50 (µM)
Give a bare numeral; the unit µM is implied.

input: I have this compound here, CC(C)COc1ccc(CNC(=O)N(Cc2ccc(F)cc2)C2CCN(C(=O)CC[C@H](N)C(=O)O)CC2)cc1 , and I need its recorded IC50.
output: 54.7
